- Target or system: T1, corticotropin releasing factor 2 receptor
- T1 sequence (Q13324 whole entry, species assumed, looked up): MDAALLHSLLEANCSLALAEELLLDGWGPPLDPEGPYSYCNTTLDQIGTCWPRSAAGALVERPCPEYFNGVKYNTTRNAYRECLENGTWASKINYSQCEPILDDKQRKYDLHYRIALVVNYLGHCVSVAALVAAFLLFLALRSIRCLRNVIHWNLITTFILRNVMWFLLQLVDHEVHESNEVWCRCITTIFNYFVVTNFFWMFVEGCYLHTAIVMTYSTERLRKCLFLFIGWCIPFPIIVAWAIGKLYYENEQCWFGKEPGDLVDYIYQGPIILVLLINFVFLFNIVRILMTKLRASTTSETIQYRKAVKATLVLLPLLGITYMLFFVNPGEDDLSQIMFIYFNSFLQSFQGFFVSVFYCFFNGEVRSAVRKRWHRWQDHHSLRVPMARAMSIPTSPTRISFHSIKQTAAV
- Assay details: cell-based or functional assay
Ends that are not written are not given here.
Is CRF2R EC50 at least 9 nM? Then Y. If not, N.

These recorded examples may help you get a feel for the data.
[
  {
    "Binder": "ZGPPISIDLPLFLLRKMIEIEKQEKEKQQAANNRLLLDTI (C-terminal amide) [SEQ ID NO 195]",
    "Discrete label": "Y"
  },
  {
    "Binder": "IVLSLDVPIGLLQILLEQAARAAREQATTNARILARV-NH2 [SEQ ID NO 135]",
    "Discrete label": "Y"
  },
  {
    "Binder": "SQEPPISLDLPFHLLREVLEMTKADQLAQQAHSNRKLLDIA-NH2 [SEQ ID NO 104]",
    "Discrete label": "Y"
  },
  {
    "Binder": "ZGPPISIDLPIQLLRKMIEIEKQEKEKQQAANNRLLLDTI (C-terminal amide) [SEQ ID NO 78]",
    "Discrete label": "Y"
  }
]

# input for lookup
In: Please indicate if the recorded CRF2R EC50 for ZGPPISIDLPWHLLRKMIEIEKQEKEKQQAANNRLLLDTI (C-terminal amide) [SEQ ID NO 209] meets or exceeds 9 nM.
Out: N

Just for reference, patent US20030148958A1 is where these values come from.
